Assay: Inhibition of bone resorption in rabbit bone
Type: functional, tissue-based, Oryctolagus cuniculus, Bone element
pIC50: −log10 of the molar value.
ENDPOINT: pIC50

- MOLECULE: "CSc1ccc(-c2cn(C)nc2[C@@H]2CCC(F)(F)C[C@H]2C(=O)NCC#N)cc1 (racemic)"
  pIC50: 7.39
- MOLECULE: "CS(=O)(=O)c1ccc(-c2cn(CC(F)(F)F)nc2[C@@H]2CCC(F)(F)C[C@H]2C(=O)NC2(C#N)CC2)cc1"
  pIC50: 7.29

(a) CS(=O)(=O)c1ccc(-c2c[nH]nc2[C@@H]2CCC(F)(F)C[C@H]2C(=O)NC2(C#N)CC2)cc1
(b) Cn1cc(-c2ccc(S(C)(=O)=O)cc2)c([C@@H]2CCC(F)(F)C[C@H]2C(=O)NC2(C#N)CC2)n1
Between a and b , which one has the lower reported pIC50 value? // return label of chosen record
a

(P) CS(=O)(=O)c1ccc(-c2cn(CC(F)(F)F)nc2[C@@H]2CCC(Cl)(Cl)C[C@H]2C(=O)NC2(C#N)CC2)cc1
(Q) CSc1ccc(-c2ccccc2[C@@H]2CCC(F)(F)C[C@H]2C(=O)NCC#N)cc1
Between P and Q , which one has the lower reported pIC50 value? // return label of chosen record
P

Value source: ChEMBL document CHEMBL1140150
